Entry source: patent US7511041B2

Please provide measured pIC50 for the entries that follow.
target: Recombinant human PI3Kγ (full length human PI3K p110γ) (Homo sapiens, UniProt P48736); construct: full length human PI3K p110γ fused with a His6-tag at the C-terminus; His6 (C); purchased ALEXIS BIOCHEMICALS #201-055-C010; host or cells: S. frugiperda 9 insect cells; test: Kinase assay of PI3Kγ (solid-phase lipid kinase assay); assay type: biochemical; details: in vitro PI3K-γ inhibitory activity, class symbols A-D; read-out: in vitro PI3K-gamma
Sequence (P48736 whole entry, the tested form may be a part): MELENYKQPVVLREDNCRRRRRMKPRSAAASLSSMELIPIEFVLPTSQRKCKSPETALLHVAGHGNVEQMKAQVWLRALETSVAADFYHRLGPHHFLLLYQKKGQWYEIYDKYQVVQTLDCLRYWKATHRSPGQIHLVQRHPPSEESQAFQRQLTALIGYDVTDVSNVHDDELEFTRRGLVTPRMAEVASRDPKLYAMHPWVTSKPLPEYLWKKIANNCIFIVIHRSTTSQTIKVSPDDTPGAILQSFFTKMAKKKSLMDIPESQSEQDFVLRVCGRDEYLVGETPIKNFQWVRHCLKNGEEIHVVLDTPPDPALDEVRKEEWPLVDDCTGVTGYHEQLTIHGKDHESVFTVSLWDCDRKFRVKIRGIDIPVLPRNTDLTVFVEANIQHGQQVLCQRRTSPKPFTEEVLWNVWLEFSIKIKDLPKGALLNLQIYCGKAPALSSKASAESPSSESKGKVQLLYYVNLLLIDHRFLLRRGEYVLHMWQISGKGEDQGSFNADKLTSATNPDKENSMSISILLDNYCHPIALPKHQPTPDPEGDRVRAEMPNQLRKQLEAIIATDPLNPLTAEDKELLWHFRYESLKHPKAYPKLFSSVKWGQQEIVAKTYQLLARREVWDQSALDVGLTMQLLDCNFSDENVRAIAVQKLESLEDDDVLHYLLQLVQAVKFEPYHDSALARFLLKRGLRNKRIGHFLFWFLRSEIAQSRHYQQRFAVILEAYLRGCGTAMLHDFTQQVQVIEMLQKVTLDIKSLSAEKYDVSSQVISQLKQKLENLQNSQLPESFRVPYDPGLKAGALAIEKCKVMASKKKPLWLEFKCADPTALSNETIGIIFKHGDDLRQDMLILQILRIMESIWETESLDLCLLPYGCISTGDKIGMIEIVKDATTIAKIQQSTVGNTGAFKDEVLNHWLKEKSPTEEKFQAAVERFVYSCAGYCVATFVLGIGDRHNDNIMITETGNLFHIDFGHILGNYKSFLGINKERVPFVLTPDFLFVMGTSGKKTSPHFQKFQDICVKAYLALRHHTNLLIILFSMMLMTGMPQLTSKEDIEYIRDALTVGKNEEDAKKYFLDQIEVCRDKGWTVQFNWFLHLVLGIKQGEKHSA
pIC50: −log10 of the molar value.

Qu. Under Recombinant human PI3Kγ (full length human PI3K p110γ) (Homo sapiens, UniProt P48736), report pIC50 for Cn1cccc1C(=O)NC1=Nc2ccccc2C2=NCCN12
Ans. 5.70 to 6.30

Qu. Under Recombinant human PI3Kγ (full length human PI3K p110γ) (Homo sapiens, UniProt P48736), report pIC50 for O=C(NC1=Nc2ccc(Cl)cc2C2=NCCN12)c1cccs1
Ans. 5.70 to 6.30

Qu. Under Recombinant human PI3Kγ (full length human PI3K p110γ) (Homo sapiens, UniProt P48736), report pIC50 for O=C(NC1=Nc2ccccc2C2=NCCN12)C(Cl)(Cl)Cl
Ans. 5.70 to 6.30

Qu. Under Recombinant human PI3Kγ (full length human PI3K p110γ) (Homo sapiens, UniProt P48736), report pIC50 for Cc1cc(C(=O)NC2=Nc3ccccc3C3=NCCN23)cc(C)c1[N+](=O)[O-]
Ans. < 5.70

Qu. Under Recombinant human PI3Kγ (full length human PI3K p110γ) (Homo sapiens, UniProt P48736), report pIC50 for O=C(NC1=Nc2ccccc2C2=NCCN12)c1ccc(F)cc1
Ans. < 5.70

Qu. Under Recombinant human PI3Kγ (full length human PI3K p110γ) (Homo sapiens, UniProt P48736), report pIC50 for O=C(NC1=Nc2ccccc2C2=NCCN12)c1ccccc1
Ans. 5.70 to 6.30

Qu. Under Recombinant human PI3Kγ (full length human PI3K p110γ) (Homo sapiens, UniProt P48736), report pIC50 for O=C(NC1=Nc2cccc(Cl)c2C2=NCCN12)c1cccnc1
Ans. 5.70 to 6.30

Qu. Under Recombinant human PI3Kγ (full length human PI3K p110γ) (Homo sapiens, UniProt P48736), report pIC50 for NC(=O)COc1ccc2c(c1)N=C(NC(=O)c1cccnc1)N1CCN=C21
Ans. 6.30 to 7.00

Qu. Under Recombinant human PI3Kγ (full length human PI3K p110γ) (Homo sapiens, UniProt P48736), report pIC50 for CCOC(=O)c1cc(C(=O)NC2=Nc3ccccc3C3=NCCN23)cc(C(=O)OCC)c1
Ans. < 5.70

Qu. Under Recombinant human PI3Kγ (full length human PI3K p110γ) (Homo sapiens, UniProt P48736), report pIC50 for Cl.O=C(NC1=Nc2ccccc2C2=NCCN12)c1ccc(C(F)(F)F)nc1
Ans. 5.70 to 6.30

Qu. Under Recombinant human PI3Kγ (full length human PI3K p110γ) (Homo sapiens, UniProt P48736), report pIC50 for O=C(NC1=Nc2ccccc2C2=NCCN12)C1CCNCC1
Ans. < 5.70

Qu. Under Recombinant human PI3Kγ (full length human PI3K p110γ) (Homo sapiens, UniProt P48736), report pIC50 for CC(C)(C)OC(=O)Nc1cccc(C(=O)NC2=Nc3ccccc3C3=NCCN23)c1
Ans. < 5.70

Qu. Under Recombinant human PI3Kγ (full length human PI3K p110γ) (Homo sapiens, UniProt P48736), report pIC50 for CN1CCN(c2ccc(C(=O)NC3=Nc4ccccc4C4=NCCN34)cc2)CC1
Ans. < 5.70

Qu. Under Recombinant human PI3Kγ (full length human PI3K p110γ) (Homo sapiens, UniProt P48736), report pIC50 for O=C(COc1ccccc1)NC1=Nc2ccccc2C2=NCCN12
Ans. < 5.70

Qu. Under Recombinant human PI3Kγ (full length human PI3K p110γ) (Homo sapiens, UniProt P48736), report pIC50 for COc1ccc2c(c1OC)N=C(NC(=O)c1cncc(O)c1)N1CCN=C21.Cl
Ans. > 7.00

Qu. Under Recombinant human PI3Kγ (full length human PI3K p110γ) (Homo sapiens, UniProt P48736), report pIC50 for O=C(NC1=Nc2ccccc2C2=NCCN12)c1ccc(-n2ccnc2)cc1
Ans. < 5.70

Qu. Under Recombinant human PI3Kγ (full length human PI3K p110γ) (Homo sapiens, UniProt P48736), report pIC50 for CN(C)c1ccc(C(=O)NC2=Nc3ccccc3C3=NCCN23)cn1.Cl
Ans. 5.70 to 6.30

Qu. Under Recombinant human PI3Kγ (full length human PI3K p110γ) (Homo sapiens, UniProt P48736), report pIC50 for O=C(NC1=Nc2cc(Cl)ccc2C2=NCCN12)c1cccs1
Ans. 5.70 to 6.30

----------
target: Recombinant human PI3Kγ (full length human PI3K p110γ) (Homo sapiens); construct: full length human PI3K p110γ fused with a His6-tag at the C-terminus; His6 (C); purchased ALEXIS BIOCHEMICALS #201-055-C010; host or cells: S. frugiperda 9 insect cells; assay: Kinase assay of PI3Kγ (solid-phase lipid kinase assay); format: biochemical; details: in vitro PI3K-γ inhibitory activity, class symbols A-D; read-out: in vitro PI3K-gamma
Reported metric: IC50

Qu. Under Recombinant human PI3Kγ (full length human PI3K p110γ) (Homo sapiens), report IC50 for CSc1ccc(C(=O)NC2=Nc3ccccc3C3=NCCN23)cc1
Ans. > 2 µM

Qu. Under Recombinant human PI3Kγ (full length human PI3K p110γ) (Homo sapiens), report IC50 for CCC(=O)NC1=Nc2ccccc2C2=NCCN12
Ans. > 2 µM

Qu. Under Recombinant human PI3Kγ (full length human PI3K p110γ) (Homo sapiens), report IC50 for COc1cc(C(=O)NC2=Nc3ccccc3C3=NCCN23)cc(OC)c1OC.Cl
Ans. > 2 µM

Qu. Under Recombinant human PI3Kγ (full length human PI3K p110γ) (Homo sapiens), report IC50 for O=C(NC1=Nc2ccccc2C2=NCCN12)c1ccc(Cl)s1
Ans. > 2 µM

Qu. Under Recombinant human PI3Kγ (full length human PI3K p110γ) (Homo sapiens), report IC50 for CC(C)(C)Oc1ccc(C(=O)NC2=Nc3ccccc3C3=NCCN23)cc1
Ans. > 2 µM

Qu. Under Recombinant human PI3Kγ (full length human PI3K p110γ) (Homo sapiens), report IC50 for O=C(NC1=Nc2ccc(O)cc2C2=NCCN12)c1ccc2[nH]cnc2c1
Ans. 0.1 to 0.5 µM

Qu. Under Recombinant human PI3Kγ (full length human PI3K p110γ) (Homo sapiens), report IC50 for COc1ccccc1C(=O)NC1=Nc2ccccc2C2=NCCN12
Ans. > 2 µM

Qu. Under Recombinant human PI3Kγ (full length human PI3K p110γ) (Homo sapiens), report IC50 for O=C(NC1=Nc2ccccc2C2=NCCN12)c1ccc2[nH]nnc2c1.O=C(O)C(F)(F)F
Ans. 0.1 to 0.5 µM

Qu. Under Recombinant human PI3Kγ (full length human PI3K p110γ) (Homo sapiens), report IC50 for CC(C)CC(=O)NC1=Nc2ccccc2C2=NCCN12
Ans. > 2 µM

Qu. Under Recombinant human PI3Kγ (full length human PI3K p110γ) (Homo sapiens), report IC50 for O=C(NC1=Nc2ccccc2C2=NCCN12)C1CC1
Ans. > 2 µM

Qu. Under Recombinant human PI3Kγ (full length human PI3K p110γ) (Homo sapiens), report IC50 for CN(C)c1ccc(C(=O)NC2=Nc3ccccc3C3=NCCN23)cn1
Ans. > 2 µM

Qu. Under Recombinant human PI3Kγ (full length human PI3K p110γ) (Homo sapiens), report IC50 for O=C(NC1=Nc2ccccc2C2=NCCN12)c1ccc2ncsc2c1
Ans. > 2 µM

Qu. Under Recombinant human PI3Kγ (full length human PI3K p110γ) (Homo sapiens), report IC50 for O=C(NC1=Nc2ccccc2C2=NCCN12)c1ccc(Cl)cc1
Ans. > 2 µM

----------
biological target: Recombinant human PI3Kγ (full length human PI3K p110γ) (Homo sapiens); construct: full length human PI3K p110γ fused with a His6-tag at the C-terminus; His6 (C); purchased ALEXIS BIOCHEMICALS #201-055-C010; host or cells: S. frugiperda 9 insect cells; test: Kinase assay of PI3Kγ (solid-phase lipid kinase assay); format: biochemical; conditions: in vitro PI3K-γ inhibitory activity, class symbols A-D; read-out: in vitro PI3K-gamma
Please provide measured IC50 for the entries that follow.

Qu. Answer with the recorded IC50 for the compound listed here: Cl.O=C(NC1=Nc2ccccc2C2=NCCN12)c1ccc2ncsc2c1 [Example 2-313]
Ans. 0.5 to 2 µM

Qu. Answer with the recorded IC50 for the compound listed here: O=C(NC1=Nc2ccccc2C2=NCCN12)C1CCCCN1C(=O)OCc1ccccc1 (centres unmarked) [Example 2-337]
Ans. > 2 µM

Qu. Answer with the recorded IC50 for the compound listed here: O=C(NC1=Nc2ccc(N3CCOCC3)cc2C2=NCCN12)c1cccs1 [Example 2-348]
Ans. > 2 µM

Qu. Answer with the recorded IC50 for the compound listed here: O=C(NC1=Nc2ccccc2C2=NCCN12)c1ccc(C(F)(F)F)nc1 [Example 2-280]
Ans. > 2 µM

Qu. Answer with the recorded IC50 for the compound listed here: COc1ccc(C(=O)NC2=Nc3ccccc3C3=NCCN23)c(OC)n1.Cl [Example 2-287]
Ans. 0.5 to 2 µM
